FYI, the data here is from ChEMBL document CHEMBL1201862.

- System: SK-MEL-2
- Assay summary: NCI tumour cell line growth inhibition, 48 h
Activity calls are given as the source filed them. Rule as the data show it: active = GI50 up to about 1.1 µM and inactive = higher.
Here the recorded GI50 is given for each entry.

# annotated cases, reported GI50 shown
Cn1c(=O)c2c(nc3n2C(CCl)CO3)n(C)c1=O (stereo not given) :: > 100 µM (inactive)
Cc1c2c(OCC(O)CN3CCN(c4ccccc4)CC3)nn(C)c(=O)c2c(C)n1-c1ccccc1 (stereo not given) :: 17.9 µM (inactive)
NCCN/C(=N\c1ccccc1)Nc1ccccc1 :: > 100 µM (inactive)

The molecule listed as `Cc1ccc(NC(=O)CC(=O)n2nc(C)c(/N=N/c3cccc(C)c3)c2C)cc1` has a reported GI50 of > 100 µM (inactive)

Lab note: `CC(=O)Oc1ccn2nc(C)c(Cc3c(C)nn4ccc(OC(C)=O)cc34)c2c1` gave GI50 of 34.6 µM (inactive)

----------
- Tested on: Malme-3M
- Assay summary: NCI tumour cell line growth inhibition, 48 h
Calls of active or inactive are those of the source. No stated cut-off is given here; in the data, active = GI50 up to about 1.1 µM and inactive = higher.
The reply should name one outcome from true (active), false (inactive)

Solved cases (5 shown):
CCC1=C(c2ccc(OC)cc2)CC[C@]2(CCNC2=O)[C@@H]1C :: false
Cc1cccc(/C=N/C23CC4CC(CC(C4)C2)C3)c1 :: false
COC1/C=C/O[C@@]2(C)Oc3c(C)c(O)c4c(O)c(cc(O)c4c3C2=O)NC(=O)/C(C)=C\C=C\[C@H](C)C(O)[C@@H](C)[C@@H](O)[C@@H](C)[C@H](OC(C)=O)[C@@H]1C (some centres not stated) :: false
O=C1c2scnc2-c2nccc3c2c1nc1ccccc13 :: true
CCOC(=O)/C=C(\C)Sc1cc(O)c2ccccc2c1O :: false

In: Hi, sorry to bother you, what did the test record for `COc1ccc(/C=C/c2cc(OC)c(O[Si](C)(C)C(C)(C)C)c(OC)c2)cc1` ?
Out: false

In: Dear all, I need the recorded test outcome for `CC(C)OP(=O)(CCCCCCCCC/C=C/c1ccc2c(c1)OCCOCCOCCOCCO2)OC(C)C` , thank you.
Out: false

In: Called result for O=c1c2ccccc2nc(-c2cccc(Cl)c2)n1NC1OC(CO)C(O)C(O)C1O (configuration not stated)
Out: false

In: Just curious, what result did `C/C(=N\NS(=O)(=O)c1ccc([N+](=O)[O-])cc1)c1ccc[n+]([O-])n1` get here?
Out: false

In: Status in this test for COC(=O)C(Cc1ccc(OC)cc1O)NC(=O)OC(C)(C)C (configuration not stated) ?
Out: false

In: Recorded test call requested for COc1ccc(C2C(C=O)C(N3CCN(C)CC3)=Nc3nc4ccccc4n32)cc1 (configuration not stated)
Out: false

In: Recorded call for `NS(=O)(=O)c1cc(Br)c(/N=N\c2ccc(O)c3ncccc23)c(Br)c1` ?
Out: false

In: Dear all, I need the recorded test outcome for NC1N=Nc2ccccc21 (configuration not stated) , thank you.
Out: false

In: I would be grateful if you could indicate the recorded call for O=C(C1OC1c1ccc([N+](=O)[O-])cc1)C12CC3CC(CC(C3)C1)C2 (configuration not stated) .
Out: false

In: Hello, I am checking results. What call was entered for `Cc1cc(O)cc(O)c1/N=N/c1ccc([N+](=O)[O-])cc1` ?
Out: false

In: Hi, sorry to bother you, what did the test record for `N#Cc1cnc(-n2[nH]c3c(c2=O)CCCC3)[nH]c1=O` ?
Out: false

In: Can you look up the reported call for `O=C(Nc1ccn(CCOC(=O)c2ccccc2)c(=O)n1)c1ccccc1` for me?
Out: false

In: Answer briefly: the call reported for O=C1NN=C(O)C2C3c4ccccc4C(c4ccccc43)C12 (configuration not stated) in this assay.
Out: false

In: Given `OCCNCNc1nc(NCNCCO)nc(N(CNCCO)CNCCO)n1` , state the outcome it received in this test.
Out: false

In: I would be grateful if you could indicate the recorded call for O=C(OCc1ccccc1)C(Cc1ccc(OCc2ccccc2)cn1)NC(=O)C(F)(F)F (configuration not stated) .
Out: false

In: Assay result, entry `Cc1nc(-c2cc3c(ccc4ccccc43)oc2=O)cc2c1c(=O)oc1ccc3ccccc3c12` — outcome?
Out: false

In: For COc1ccc(C2CC(C)=Nc3c(O)nc(S)nc3N2)cc1 (configuration not stated) , what call appears in the results of this test?
Out: false

In: How did this test come out for CC1CCCCNC1=S (configuration not stated) ?
Out: false

In: Name the outcome recorded for `CC(=O)NNc1nc(C)c(C(=O)/C=C/c2cccc([N+](=O)[O-])c2)s1` in the assay.
Out: false

In: Would you mind telling me which call this test gave `Nc1nc2[nH]c(=O)cnc2c(=O)[nH]1` ?
Out: false

In: What did this assay record as the result for `C[C@@H]1CCC([C@@H](C)[C@H]2CC[C@H]3[C@@H]4CC[C@H]5C[C@@H](O)CC[C@]5(C)[C@H]4CC[C@]23C)=NC1` ?
Out: false

In: # outcome recorded in this test, key = `CCOC(=O)[C@@]12C(C)=CC(=O)O[C@]1(C)C[C@H]2C#N`
Out: false

In: Look up the recorded call for `COC(=O)c1c(O)ccc2c1c1c(n2Cc2cc(OC)cc(OC)c2)C(=O)c2ccccc2C1` in this test.
Out: false

----------
- System: LXFL 529
- Assay summary: NCI tumour cell line growth inhibition, 48 h
Activity calls are given as the source filed them. Rule as the data show it: active = GI50 up to about 1.1 µM and inactive = higher.
API: response.call in Y (active), N (inactive)

See these solved cases before continuing.
O=CN/C=C/c1ccccc1O :: N
COc1ccc(/C=C2\CN(C)Cc3c2nc(N)nc3-c2ccc(OC)cc2)cc1 :: N
O=c1[nH]c(=O)n(C2CC(O)C(CO)O2)cc1C#Cc1ccc(C(F)(F)F)cc1 (stereo not given) :: N

In: Record request — test call for `O=C(c1ccccc1)c1nnn(Cc2cccc(Cl)c2)c1C(=O)c1ccccc1`
Out: N

In: Returns: the outcome recorded for `[O-]c1c2c(nn1-c1ccc(F)cc1)c1ccccc1c[n+]2Cc1ccccc1` in this assay.
Out: Y

In: Fill in: this test's call for COC(=O)N/N=C(/c1nc2ccc([N+](=O)[O-])cc2nc1O)C(O)c1ccc(OC)c(OC)c1 (stereo not given) is ___
Out: N

In: I would be grateful if you could indicate the recorded call for `C/C(CC(=O)Nc1cc(Cl)c(Cl)cc1Cl)=N\NC(N)=O` .
Out: N

In: For `N#CCCN(c1ccc(/C=N/c2ccccc2)cc1)S(=O)(=O)c1ccccc1` , which call appears in the assay record?
Out: N

In: Outcome logged for `O=C(Nc1ccn(CCOC(=O)c2ccccc2)c(=O)n1)c1ccccc1` in this assay:
Out: N

In: Which outcome did this test record for the compound `CC[n+]1c(-c2ccccc2)c2cc(N)ccc2c2ccc(N)cc21` ?
Out: Y

----------
- Test system: RPMI-8226
- Assay summary: NCI tumour cell line growth inhibition, 48 h
Calls of active or inactive are those of the source. Cut-off read from the data, not from the text of the source: active = GI50 up to about 1.1 µM and inactive = higher.
Choose the fitting class; nothing outside active, inactive is accepted.

Example cases with answers are listed next.
C/C(CC(=O)Nc1cc(Cl)c(Cl)cc1Cl)=N\NC(N)=O :: inactive
CC[C@@H](C)[C@H]([C@H](CC(=O)N1CCC[C@@H]1[C@@H](OC)[C@H](C)C(=O)N[C@H](Cc1ccccc1)c1nccs1)OC)N(C)C(=O)[C@H](NC(=O)[C@@H](C(C)C)N(C)C)C(C)C :: active
CCOCC(=O)N[C@H]1CCc2cc(OC(=O)COCC)c(OC)c(OC)c2-c2ccc(SC)c(=O)cc21 :: active
O=C1c2ccccc2-c2nc3ccc(O)cc3n21 :: inactive

Now examine the next entry.
In: Which outcome was entered for the molecule `O=C1c2ccccc2C(=O)c2c1oc1cc(O)c(Cl)cc21` in this test?
Out: inactive

----------
- System: OVCAR-5
- Assay summary: NCI tumour cell line growth inhibition, 48 h
Active and inactive are the calls of the source. Rule as the data show it: active = GI50 up to about 1.1 µM and inactive = higher.
As shown below, each of these molecules has a reported GI50 value.

Here is how some molecules turned out for GI50.
O=C1c2ccccc2C(=O)c2c1oc1cc(O)c(Cl)cc21 :: 11.2 µM (inactive)
Cc1ccc(/C=C2\CN(C)CC3C2=NC(=S)NC3c2ccc(C)cc2)cc1 (centres undefined) :: > 100 µM (inactive)
COC(=O)c1c(O)ccc2c1c1c(n2Cc2cc(OC)cc(OC)c2)C(=O)c2ccccc2C1 :: 18.4 µM (inactive)

# GI50 (molecule: `CC(C)Oc1c(-c2c(OC(C)C)c(=O)c2=O)c(=O)c1=O` ) is > 100 µM (inactive)

The reported GI50 of the molecule `CCN(C(=O)N[C@@H](C)C(=O)N[C@@H](Cc1ccccc1)C(=O)OC)c1ccccc1` was > 100 µM (inactive)

molecule CO[C@H]1C=CO[C@@]2(C)Oc3c(C)c(O)c4c(O)c(c(CN5CCN(C)CC5)c(O)c4c3C2=O)NC(=O)/C(C)=C\C=C[C@H](C)[C@H](O)C(C)[C@@H](O)C(C)[C@H](OC(C)=O)[C@@H]1C (some centres undefined) , GI50 observed: > 100 µM (inactive)

In plain terms, CN1CCOC1(C)CO (centres undefined) has a documented GI50 of > 100 µM (inactive)

Form field GI50, entry `O=C(/C=C(\Nc1ccccc1O)c1ccccc1)C(=O)NC12CC3CC(CC(C3)C1)C2` : 8.45 µM (inactive)

get_value(item= `O=C1c2ccccc2S(=O)(=O)c2ccccc21` , readout=GI50) returns > 100 µM (inactive)
